Test system: P. aeruginosa (Pa, ATCC 27853)
method_description: microbe, parasite or virus in culture
Assay type: cell-based, Pseudomonas aeruginosa
measurement_setup: ATCC 27853, 24 h
Where a SMILES comes first, the peptide text is derived from it. Bridges are numbered along the chain shown (N, C = ends). The star is where a group is joined. Octanoyl = CCCCCCCC(=O)*
quantity_kind: Antimicrobial Activity (MIC) Gram − Pa

molecule: CC(C)C[C@H](NC(=O)[C@H](CCCNC(=N)N)NC(=O)[C@@H]1CSSC[C@H](N)C(=O)NCC(=O)N[C@@H](CCCNC(=N)N)C(=O)N[C@@H](CCCNC(=N)N)C(=O)N2CCC[C@H]2C(=O)N[C@@H](Cc2c[nH]c3ccccc23)C(=O)N[C@@H](Cc2c[nH]c3ccccc23)C(=O)N[C@@H](Cc2c[nH]c3ccccc23)C(=O)N[C@@H](CCCNC(=N)N)C(=O)N1)C(N)=O [cTurg-7] (H-CGRRPWWWRCRL-NH2; disulfide 1-10; N-terminus assumed)
assay_value: 32 µg/mL
//
molecule: CCCCCCCC(=O)N[C@@H](CS)C(=O)NCC(=O)N[C@@H](CCCCN)C(=O)N[C@@H](CCCCN)C(=O)N1CCC[C@H]1C(=O)NCC(=O)NCC(=O)N[C@@H](Cc1c[nH]c2ccccc12)C(=O)N[C@@H](CCCCN)C(=O)N[C@@H](CS)C(=O)N[C@@H](CCCCN)C(=O)N[C@@H](CC(C)C)C(N)=O [Peptide C8-Turg-1, C8- CGKKPGGWKC KL-NH2] (Octanoyl-CGKKPGGWKCKL-NH2)
assay_value: 128 µg/mL
//
molecule: CCCCCCCC(=O)N[C@H]1CSSC[C@@H](C(=O)N[C@@H](CCCCN)C(=O)N[C@@H](CC(C)C)C(N)=O)NC(=O)[C@H](CCCCN)NC(=O)[C@H](Cc2c[nH]c3ccccc23)NC(=O)CNC(=O)CNC(=O)[C@@H]2CCCN2C(=O)[C@H](CCCCN)NC(=O)[C@H](CCCCN)NC(=O)CNC1=O [Peptide C8-cTurg-1, C8 -(CGKKPGGWKC)KL-NH2] (Octanoyl-CGKKPGGWKCKL-NH2; disulfide 1-10)
assay_value: 128 µg/mL
